B1: Caulobacter ParB omega fusion; a variant is named by its letters at X, in order, B8GW30 (parent)
chain: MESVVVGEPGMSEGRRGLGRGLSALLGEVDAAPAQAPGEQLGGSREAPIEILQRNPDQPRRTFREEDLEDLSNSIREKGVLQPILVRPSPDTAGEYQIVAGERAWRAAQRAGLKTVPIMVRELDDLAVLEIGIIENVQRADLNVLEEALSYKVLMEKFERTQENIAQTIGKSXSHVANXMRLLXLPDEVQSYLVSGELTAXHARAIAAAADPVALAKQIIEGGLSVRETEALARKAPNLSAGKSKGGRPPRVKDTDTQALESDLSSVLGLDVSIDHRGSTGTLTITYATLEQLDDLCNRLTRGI

- Variants of: B1
- assay_text: one-hybrid fitness for binding parS DNA (scaled: cognate 1, non-cognate 0); higher = stronger binding
- assay_context: with parS DNA site
The full ranking holds about 81,000 sequences; the median of “one-hybrid fitness for binding parS DNA” is about -0.17, and the highest 2% start at about 0.51. The list comes from a sample in which the highest values are over-represented; it also holds close analogues and randomly drawn sequences.
parameter_measured: one-hybrid fitness for binding parS DNA

Exam item: Return reported one-hybrid fitness for binding parS DNA; argument: `IISE`
Marked response: ≤ 0.2

Exam item: Return reported one-hybrid fitness for binding parS DNA; argument: `RWGT`
Marked response: 0.548

Exam item: Return reported one-hybrid fitness for binding parS DNA; argument: `KWKD`
Marked response: ≤ 0.2

Exam item: Return reported one-hybrid fitness for binding parS DNA; argument: `GTET`
Marked response: ≤ 0.2

Exam item: Return reported one-hybrid fitness for binding parS DNA; argument: `RRYT`
Marked response: 0.604

Exam item: Return reported one-hybrid fitness for binding parS DNA; argument: `RKCD`
Marked response: ≤ 0.2

Exam item: Return reported one-hybrid fitness for binding parS DNA; argument: `MFKT`
Marked response: ≤ 0.2

Exam item: Return reported one-hybrid fitness for binding parS DNA; argument: `QLLW`
Marked response: ≤ 0.2

Exam item: Return reported one-hybrid fitness for binding parS DNA; argument: `RPRT`
Marked response: ≤ 0.2

Exam item: Return reported one-hybrid fitness for binding parS DNA; argument: `RCNT`
Marked response: 0.879

Exam item: Return reported one-hybrid fitness for binding parS DNA; argument: `TSHI`
Marked response: ≤ 0.2

Exam item: Return reported one-hybrid fitness for binding parS DNA; argument: `YRAT`
Marked response: ≤ 0.2

Exam item: Return reported one-hybrid fitness for binding parS DNA; argument: `VRVS`
Marked response: ≤ 0.2

Exam item: Return reported one-hybrid fitness for binding parS DNA; argument: `RIAP`
Marked response: ≤ 0.2

Exam item: Return reported one-hybrid fitness for binding parS DNA; argument: `RWYT`
Marked response: 0.596

Exam item: Return reported one-hybrid fitness for binding parS DNA; argument: `YYVT`
Marked response: ≤ 0.2

Exam item: Return reported one-hybrid fitness for binding parS DNA; argument: `TRDK`
Marked response: ≤ 0.2

Exam item: Return reported one-hybrid fitness for binding parS DNA; argument: `RHTY`
Marked response: 0.41

Exam item: Return reported one-hybrid fitness for binding parS DNA; argument: `RGNH`
Marked response: ≤ 0.2

Exam item: Return reported one-hybrid fitness for binding parS DNA; argument: `RWWT`
Marked response: 0.507

Exam item: Return reported one-hybrid fitness for binding parS DNA; argument: `QASI`
Marked response: ≤ 0.2

Exam item: Return reported one-hybrid fitness for binding parS DNA; argument: `RRYF`
Marked response: ≤ 0.2

Exam item: Return reported one-hybrid fitness for binding parS DNA; argument: `WTRR`
Marked response: ≤ 0.2

Exam item: Return reported one-hybrid fitness for binding parS DNA; argument: `RPNT`
Marked response: ≤ 0.2

Exam item: Return reported one-hybrid fitness for binding parS DNA; argument: `RKNC`
Marked response: 0.806

Exam item: Return reported one-hybrid fitness for binding parS DNA; argument: `RYKN`
Marked response: 0.394

Exam item: Return reported one-hybrid fitness for binding parS DNA; argument: `QADL`
Marked response: ≤ 0.2

Exam item: Return reported one-hybrid fitness for binding parS DNA; argument: `RKMH`
Marked response: ≤ 0.2

Exam item: Return reported one-hybrid fitness for binding parS DNA; argument: `RGPG`
Marked response: 0.298

Exam item: Return reported one-hybrid fitness for binding parS DNA; argument: `DNQC`
Marked response: ≤ 0.2

Exam item: Return reported one-hybrid fitness for binding parS DNA; argument: `SCMC`
Marked response: ≤ 0.2

Exam item: Return reported one-hybrid fitness for binding parS DNA; argument: `RYVT`
Marked response: 0.716

Exam item: Return reported one-hybrid fitness for binding parS DNA; argument: `RSRP`
Marked response: ≤ 0.2

Exam item: Return reported one-hybrid fitness for binding parS DNA; argument: `RFMC`
Marked response: 0.824

Exam item: Return reported one-hybrid fitness for binding parS DNA; argument: `MCTL`
Marked response: ≤ 0.2

Exam item: Return reported one-hybrid fitness for binding parS DNA; argument: `RDTC`
Marked response: ≤ 0.2

Exam item: Return reported one-hybrid fitness for binding parS DNA; argument: `RDYT`
Marked response: ≤ 0.2

Exam item: Return reported one-hybrid fitness for binding parS DNA; argument: `CYFG`
Marked response: ≤ 0.2
